Assignment: determine reported pIC50 for the given binders.
TARGET_SYSTEM: T1, PSMA Fab (SEQ ID NOs: 19, 20)
T1 construct: also called 006 PSMA Fab; anti-PSMA Fab
ASSAY: competition ELISA, peptide titrated against 0.3 nM PSMA Fab on captured biotinylated PSMA
Where no end group is shown, it is not given here.
pIC50 here: minus log base 10 of the concentration, concentration in moles per litre.

Fill in: pIC50 of PDCVYHSFWGYSCR (cysteine pairing not given here; also: biotinylated (site not given here), PSMA peptide mask (P2)) [Peptide-178] is ___
4.68

Fill in: pIC50 of HCKFHDYHSWYMCY (cysteine pairing not given here; also: biotinylated (site not given here), PSMA peptide mask (P2)) [Peptide-175] is ___
4.75

Fill in: pIC50 of YECHQGLFHRWCVN (cysteine pairing not given here; also: biotinylated (site not given here), PSMA peptide mask (P2)) [Peptide-158] is ___
4.76

Fill in: pIC50 of PLCGTEEVWWECRL (cysteine pairing not given here; also: biotinylated (site not given here), PSMA peptide mask (P2)) [Peptide-166] is ___
4.72
